# TARGET DESC: Pin1 (Homo sapiens)
# ASSAY PROCEDURE: Denaturation thermal shift assay (SYPRO Orange)
# Type: binding
# Set-up: human Pin1 (residues 1-163); made in house; host or cells: E. coli BL21 (DE3) gold pLysS
# CONDITION INFO: Table 3; single transition; ± SE of four replicates
Where a SMILES comes first, the peptide text is derived from it. [ ]: non-standard residue; d: D form. The star is where a group is joined. Phe(4-NO2) = N[C@@H](Cc1ccc([N+](=O)[O-])cc1)C(=O)O; Trp(5-OH) = N[C@@H](Cc1c[nH]c2ccc(O)cc12)C(=O)O; Phe(4-CN) = N#Cc1ccc(C[C@H](N)C(=O)O)cc1; Pip = O=C(O)[C@@H]1CCCCN1; ClAc = O=C(CCl)*
MEASURED PROPERTY: ΔTm (° C.) (°C)

NC(=O)[C@H](Cc1c[nH]c2ccc(O)cc12)NC(=O)[C@@H]1CCCCN1C(=O)[C@H](Cc1ccccc1)NC(=O)CCl [158F9] (ClAc-Phe-[Pip]-[Trp(5-OH)]-NH2)
−9.99
N#Cc1ccc(C[C@H](NC(=O)CCl)C(=O)N2CCCC[C@H]2C(=O)N[C@@H](Cc2c[nH]c3ccccc23)C(N)=O)cc1 [158G4] (ClAc-[Phe(4-CN)]-[Pip]-Trp-NH2)
−9.71
NC(=O)[C@H](Cc1c[nH]c2ccccc12)NC(=O)[C@@H]1CCCCN1C(=O)[C@H](Cc1ccc([N+](=O)[O-])cc1)NC(=O)CCl [158G2] (ClAc-[Phe(4-NO2)]-[Pip]-Trp-NH2)
−10.16

----------
# TARGET DESC: Pin1 (Homo sapiens, UniProt Q13526)
# Sequence (Q13526 whole entry): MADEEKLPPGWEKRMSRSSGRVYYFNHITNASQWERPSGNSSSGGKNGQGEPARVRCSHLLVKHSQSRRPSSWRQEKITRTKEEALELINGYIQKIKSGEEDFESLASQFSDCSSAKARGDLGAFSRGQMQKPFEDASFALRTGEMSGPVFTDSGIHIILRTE
# ASSAY PROCEDURE: DELFIA displacement assay (displacement of biotinylated D-peptide from 6His-Pin1)
# Assay type: binding
# Design: human Pin1 (residues 1-163); made in house; host or cells: E. coli BL21 (DE3) gold pLysS
# CONDITION INFO: Table 3; ± SD from duplicates
Where a SMILES comes first, the peptide text is derived from it. [ ]: non-standard residue; d: D form. The star is where a group is joined. Trp(5-OH) = N[C@@H](Cc1c[nH]c2ccc(O)cc12)C(=O)O; Phe(3-CN) = N#Cc1cccc(C[C@H](N)C(=O)O)c1; Pip = O=C(O)[C@@H]1CCCCN1; ClAc = O=C(CCl)*
MEASURED PROPERTY: IC50 (nM)

These recorded examples may help you get a feel for the data.
NC(=O)[C@H](Cc1c[nH]c2ccc(O)cc12)NC(=O)[C@@H]1CCCCN1C(=O)[C@H](Cc1ccccc1)NC(=O)CCl [158F9] (ClAc-Phe-[Pip]-[Trp(5-OH)]-NH2)
135
NC(=O)[C@H](Cc1c[nH]c2ccccc12)NC(=O)[C@@H]1CCCCN1C(=O)[C@H](Cc1ccc(O)cc1)NC(=O)CCl [158G5] (HELM PEPTIDE1{[O=C(CCl)[*:2]].Y.[O=C([C@@H]1CCCCN1[*:1])[*:2]].W.[am]}$$$$V2.0)
119
O=C(CCl)N[C@@H](Cc1ccccc1)C(=O)N1CCCC[C@H]1C(=O)NCCc1c[nH]c2cc(Cl)cc(Cl)c12
327
O=C(CCl)N[C@@H](Cc1cccc(O)c1)C(=O)N1CCCC[C@H]1C(=O)NCCc1c[nH]c2cc(Cl)cc(Cl)c12
289

P: N#Cc1cccc(C[C@H](NC(=O)CCl)C(=O)N2CCCC[C@H]2C(=O)N[C@@H](Cc2c[nH]c3ccccc23)C(N)=O)c1 [158G3] (ClAc-[Phe(3-CN)]-[Pip]-Trp-NH2)
Q: O=C(CCl)N[C@@H](Cc1ccccc1)C(=O)N1CCCC[C@H]1C(=O)NCCc1c[nH]c2ccc(F)cc12
Qu. Please tell me which of the two, P or Q , has the higher reported IC50 value. Identify your selection by its label.
Ans. Q
(Q: 1040 nM, P: 132 nM)

Cited source for all entries: patent US20250296955A1
